The reported numbers originate from PubChem BioAssay.

Below is a list of entries, each paired with its recorded nuclei count value.
Assay: inhibitors of E-selectin induction by TNFa, primary screen, imaging, HUVEC, immunofluorescence, MLSMR starter and 10KST1 sets (AID 487);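 further: 100% = median nuclei count of all wells on the same plate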
Settings: HUVEC TNFalpha-induced E-selectin immunofluorescence imaging, at 2 µM; measured here: cell number, toxicity
Please reply with the bare figure in % and do not write the unit itself.

Consider the worked cases shown below.
[[record]]
compound = "O=c1c(-c2ccc(Br)cc2)coc2c(CN3CCOCC3)c(O)ccc12"
test_value = 118

[[record]]
compound = "N/C(=N/O)c1nc(N2CCCC2)nc(N(c2ccccc2)c2ccccc2)n1"
test_value = 104

[[record]]
compound = "CC(=O)NC(=O)Nc1sc(=S)n(C)c1C"
test_value = 71.6

[[record]]
compound = "CCOC(=O)c1oc2ccccc2c1CSc1nnnn1-c1ccc(C)cc1"
test_value = 106

[[record]]
compound = "CCN1CCc2c(C#N)c(NCc3ccccc3)nc(N(CC)CC)c2C1"
test_value = 141


Prompt line: Please report nuclei count for the following compound: CCOC(=O)CSc1nnc(NC(=O)c2cccc(S(=O)(=O)N3CCCCC3)c2)s1
Response line: 102

Prompt line: Please report nuclei count for the following compound: CCOC(=O)COn1c(=O)c(-c2ccc(OC)c(OC)c2)[n+]([O-])c2ccccc21
Response line: 142

Prompt line: Please report nuclei count for the following compound: O=C1C=C(N2CCN(C3=CC(=O)CCC3)CC2)CCC1
Response line: 100

Prompt line: Please report nuclei count for the following compound: CCOC(=O)c1cnn(-c2sc(C(=O)OCC)c(C)c2C(=O)OCC)c1N
Response line: 115

Prompt line: Please report nuclei count for the following compound: O=C1CCCN1c1ccc(S(=O)(=O)NCc2ccco2)cc1
Response line: 180

Prompt line: Please report nuclei count for the following compound: Cc1ccc(NC(=O)c2cc(N3CCOCC3)nc3ccccc23)cc1
Response line: 174

###

Below is a list of entries, each paired with its recorded fluorescence slope value.
Target: Voltage-gated potassium channel subunit beta-2 (Rattus norvegicus) (UniProt P62483)
Sequence (P62483 whole entry, looked up): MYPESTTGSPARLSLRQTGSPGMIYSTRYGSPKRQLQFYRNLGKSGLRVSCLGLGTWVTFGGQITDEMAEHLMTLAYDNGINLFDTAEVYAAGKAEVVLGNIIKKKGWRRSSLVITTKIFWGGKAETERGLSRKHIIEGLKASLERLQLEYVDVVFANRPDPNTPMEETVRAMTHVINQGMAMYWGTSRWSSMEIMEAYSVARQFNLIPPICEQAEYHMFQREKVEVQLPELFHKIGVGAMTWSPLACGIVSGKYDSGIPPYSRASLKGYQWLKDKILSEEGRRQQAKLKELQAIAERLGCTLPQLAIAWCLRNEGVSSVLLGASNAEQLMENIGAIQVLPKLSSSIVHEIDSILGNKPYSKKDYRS
Assay: KvBeta enzyme negative modulators, primary screen, biochemical, NADPH fluorescence (AID 622);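 further: slope of raw intensity against log time taken from 70 to 1610 s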
Conditions: recombinant KvBeta, 4-cyanobenzaldehyde reduction, at 10 µM, stronger effect = higher value
I only need the number, thanks.

[[record]]
compound = "O=C1CC(Cc2ccccc2)C(=O)N1CCCn1ccnc1 (stereo unspecified)"
observation_type = "fluorescence slope"
test_value = -0.346

[[record]]
compound = "O=C(CN1CCN(c2ncccn2)CC1)Nc1ccccc1-n1cccc1"
observation_type = "fluorescence slope"
test_value = -0.621

[[record]]
compound = "CCOC(=O)Cc1nnc2c(Nc3ccc(C)cc3)nc3nonc3n12"
observation_type = "fluorescence slope"
test_value = -0.612

[[record]]
compound = "O=C(NCc1ccco1)c1cccn2c(=O)c3sccc3nc12"
observation_type = "fluorescence slope"
test_value = -0.112

[[record]]
compound = "C=CCn1c(SCn2nnc3ccccc3c2=O)nnc1-c1ccc(Br)cc1"
observation_type = "fluorescence slope"
test_value = -0.328


Now examine the next entry.
Prompt line: Please report fluorescence slope for the following compound: Cn1c2c(c(=O)n(C)c1=O)C(c1cccc(Br)c1)C1C(=O)c3ccccc3C1=N2 (stereo unspecified)
Response line: -0.585

###

Test: inhibitors of Chlamydomonas gravitaxis, primary screen, whole organism, Chlamydomonas reinhardtii, WT vs cilia-less mutant, absorbance, 96-well (AID 463189);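 further: 0% = wild type cc124 cells in DMSO and 100% = ciliumless bld1 mutant cells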
Details: OD600 absorbance, 2 days, at 10 µM
Activity calls are given as the source filed them.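 Rule for the calls: active = inhibition at or above 50% relative to wild type and mutant plate controls; inactive = inhibition below 50%.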
Respond only with the outcome that fits, drawn from active, inactive

[[record]]
compound = "Cn1c(=O)c2c(nc(NCCCO)n2Cc2cccc(C(F)(F)F)c2)n(C)c1=O"
answer_label = "inactive"


Prompt line: Returns: the outcome recorded for Cn1c(=O)c2c(nc(NCc3ccc4c(c3)OCO4)n2Cc2ccccc2Cl)n(C)c1=O in this assay.
Response line: inactive

###

Assay: inhibitors of TNFa-induced NFkB p65 translocation, primary screen, imaging, HUVEC, MLSMR starter and 10KST1 sets (AID 438);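 further: compound added about 3h40 before a 20 min TNFalpha stimulation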
Conditions: HUVEC TNFa-induced p65 nuclear translocation; measured here: nuclei count (cytotoxicity indicator), at 2.08 µM
Decide by cell count: equal to or exceeding 600 means Criterion met, less means Criterion not met.

Example cases with answers are listed next.
[[record]]
compound = "Cc1nc2sc(C(c3ccco3)N3CCN(c4ccccc4F)CC3)c(O)n2n1 (stereo not given)"
answer_label = "Criterion not met"

[[record]]
compound = "Cc1ccc(-n2ncc3c(NCCCN4CCCC4=O)ncnc32)c(C)c1"
answer_label = "Criterion not met"

[[record]]
compound = "COc1ccc(C(=O)Nn2c(C3CCC3)nc3ccccc3c2=O)c(OC)c1"
answer_label = "Criterion met"

[[record]]
compound = "N#Cc1c(NC(NC(=O)c2ccco2)C(=O)c2ccccc2)sc2c1CCCC2 (stereo not given)"
answer_label = "Criterion not met"


Now for another entry.
Prompt line: Assess whether reported cell count for Cc1cc(=O)oc(C)c1C(=O)NC12CC3CC(CC(C3)C1)C2 sits at 600 or higher.
Response line: Criterion met

###

Below is a list of entries, each paired with its recorded nuclei count value.
Assay: inhibitors of E-selectin induction by TNFa, primary screen, imaging, HUVEC, immunofluorescence, MLSMR starter and 10KST1 sets (AID 487);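 further: 100% = median nuclei count of all wells on the same plate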
Settings: HUVEC TNFalpha-induced E-selectin immunofluorescence imaging, at 2 µM; measured here: cell number, toxicity
Please reply with the bare figure in % and do not write the unit itself.

Prompt line: Please report nuclei count for the following compound: Cn1c(=N)c(S(=O)(=O)c2ccc(Cl)cc2)cc2c(=O)n3ccccc3nc21
Response line: 94.5

Prompt line: Please report nuclei count for the following compound: CC(=O)Nc1ccc(OCC(O)CN2CCN(c3cccc(Cl)c3)CC2)cc1 (stereo unspecified)
Response line: 115

Prompt line: Please report nuclei count for the following compound: COc1ccccc1N1CCN(C(=O)c2c(-c3c(Cl)cccc3Cl)noc2C)CC1
Response line: 110

Prompt line: Please report nuclei count for the following compound: O=C(CC1SC2=NCCN2C1=O)Nc1ccccc1 (stereo unspecified)
Response line: 167

Prompt line: Please report nuclei count for the following compound: CCc1cc(=O)oc2cc(C)c(CN3CCCC(C)C3)c(O)c12 (stereo unspecified)
Response line: 109

Prompt line: Please report nuclei count for the following compound: CCCOC(=O)C1C2C=CC3(CN(c4cccc(Cl)c4)C(=O)C13)O2 (stereo unspecified)
Response line: 116

Prompt line: Please report nuclei count for the following compound: CC12CN3CC(C)(CN(C1)C3c1ccc(Cl)cc1Cl)C2O (stereo unspecified)
Response line: 121

Prompt line: Please report nuclei count for the following compound: CCOc1ccc(Cn2nnc(C(=O)Nc3cc(C)cc(C)c3)c2N)cc1
Response line: 108

Prompt line: Please report nuclei count for the following compound: COc1ccc(C(=O)c2oc3nc(C)cc(C)c3c2N)cc1
Response line: 117

Prompt line: Please report nuclei count for the following compound: CCCc1cc(=O)oc2c(C)c3occ(C)c3cc12
Response line: 109

Prompt line: Please report nuclei count for the following compound: O=C(COc1ccccc1)Nc1nc2ccccc2[nH]1
Response line: 119

###

Assay: inhibitors of TNFa-induced NFkB p65 translocation, primary screen, imaging, HUVEC, MLSMR starter and 10KST1 sets (AID 438);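 further: compound added about 3h40 before a 20 min TNFalpha stimulation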
Conditions: HUVEC TNFa-induced p65 nuclear translocation; measured here: nuclei count (cytotoxicity indicator), at 2.08 µM
observation-type: cell count
I only need the number, thanks.

Consider the worked cases shown below.
[[record]]
compound = "COC(=O)[C@H]1CCCN1C(=O)Nc1cccc(Oc2c(F)c(F)c(F)c(F)c2F)c1"
observation_type = "cell count"
test_value = 709

[[record]]
compound = "CN(C)CCCN1C(=O)C(=O)/C(=C(/O)c2ccccc2)C1c1ccccn1 (stereo not given)"
observation_type = "cell count"
test_value = 473

[[record]]
compound = "CC(C)Cc1nc(N2CCOCC2)c(C#N)c2c1COC(C)(C)C2"
observation_type = "cell count"
test_value = 584

[[record]]
compound = "COc1cccc(C(=O)c2sc(NC(C)C)nc2N)c1"
observation_type = "cell count"
test_value = 637


Now examine the next entry.
Prompt line: Please report cell count for the following compound: CCSc1nc2c(c(=O)[nH]1)C(c1cccnc1)C(C(=O)OC(C)C)=C(C)N2 (stereo not given)
Response line: 500

###

Target: Voltage-gated potassium channel subunit beta-2 (Rattus norvegicus)
Test: KvBeta positive modulators, primary screen, biochemical, NADPH fluorescence (AID 623);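 further: fluorescence intensity change per second fitted from 20 to 320 s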
Conditions: Recombinant KvBeta, NADPH fluorescence decrease slope, 10 min; at 10 µM; stronger effect = lower value
observation-type: NADPH fluorescence slope
I only need the number, thanks.

Consider the worked cases shown below.
[[record]]
compound = "CCn1c(C(C#N)/C(=N\\S(=O)(=O)c2cccs2)c2ccccc2)nc2ccccc21 (configuration not stated)"
study_system = "Voltage-gated potassium channel subunit beta-2 (Rattus norvegicus)"
test_value = "-3.2e-06"

[[record]]
compound = "Cc1ccc(-n2cnnn2)c2cccnc12"
study_system = "Voltage-gated potassium channel subunit beta-2 (Rattus norvegicus)"
test_value = "-1.4e-05"

[[record]]
compound = "OC(CNCC1COc2ccccc2O1)COCc1cccs1 (configuration not stated)"
study_system = "Voltage-gated potassium channel subunit beta-2 (Rattus norvegicus)"
test_value = "6.2e-06"

[[record]]
compound = "CCOC(=O)c1sc(NC(=O)C2CC=CCC2C(=O)O)nc1C (configuration not stated)"
study_system = "Voltage-gated potassium channel subunit beta-2 (Rattus norvegicus)"
test_value = "5.4e-05"

[[record]]
compound = "COC(=O)CSc1nc2c(c(=O)n(C)c(=O)n2C)n1CCC(C)C"
study_system = "Voltage-gated potassium channel subunit beta-2 (Rattus norvegicus)"
test_value = "6.8e-06"


Prompt line: Please report NADPH fluorescence slope for the following compound: N#CC1=C(SCC(=O)NC2CCCCC2)NC(=O)CC1c1ccco1 (configuration not stated)
Response line: -5.1e-05
